Target Entity: T1, human glycophorin A in the red blood cell membrane (human, UniProt P02724 20-150)
T1 construct: whole, on cells; used for intact RBC, isolated RBC membranes and transfected cells; the assay field tells which; also called GPA; hGPA
T1 sequence (looked up): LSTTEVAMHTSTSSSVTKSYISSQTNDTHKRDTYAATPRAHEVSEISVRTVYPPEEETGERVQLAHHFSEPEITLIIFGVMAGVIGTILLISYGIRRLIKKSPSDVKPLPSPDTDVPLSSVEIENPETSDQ
Experiment Description: FACS, hu RBC
Listed here: items and their measured FACS signal.

Observe how each entry below is paired with its result.
| Binder | FACS signal |
| --- | --- |
| 1E4A2/F8 (antibody, V domains shown, as m8) VH: QVQLQQSGAELARPGASVKMSCKASGYTFTRYSMHWVKQRPGQGLEWIGYINPGTYYTNYNQKFKDRATLTADKSSSTAYMQLNSLTSEDSAVYYCQTGTRDYWGQGTTLTVSS VL: QIVLTQSPPIMSASPGEKVTITCSAASSVSYIYWFQQKPGTSPKLWIYSTSSLPSGVPTRFSGSGSGTSYSLTISRMEAEDAATYYCHQRSSYPFTFGSGTKLEIR | 2560 relative flourescence units |
| 12C6A6/A5 (antibody, V domains shown, as m8) VH: QVQLQQSGAELARPGASVKMSCKASGYTFTRYSMHWVKQRPGQGLEWIGYINPGTYSTNYNQKFKDRATLTADKSSSTAYMQLNSLTSEDSAVYYCQTGTRDYWGQGTTLTVSS VL: QIVLTQSPPIMSASPGEKVTITCSAASSVSYIYWFQQKPGTSPKLWIYSTSSLPSGVPTRFSGSGSGTSYSLTISRMEAEDAATYYCHQRSSYPFTFGSGTKLEIR | 2840 relative flourescence units |
| 6C12B8/H8 (antibody, V domains shown, mouse IgG1/k from hybridoma; also called 6C12 parental; TPP-3422) VH: RVQLQQSGAELARPGASVKMSCKASGYTFTTYTIHWVKQKTGQGLEWIGYINPSSDYTRYNPKFKDKATLTTDKSSSTAYMKLNSLASDDSAVYYCQTGTRDYWGQGTTLTVSS VL: QIVLTQSPPIMSASPGEKVTMTCSAASSVSYIYWFQQKPGTSPKLWIYSTSTLPSGVPTRFSGSGSGTSYSLTISRMEAEDAATYYCHQRNSFPFTFGSGTKLEIR | 3100 relative flourescence units |
| 7G4E9/A8 (antibody, V domains shown, as m8) VH: QVQLKESGPGLVAPSQSLSITCTVSGFSLTRFGISWVRQPPGKGLEWMGVIWGDGSTDYHSALISRLSITKDNSKSQVFFRLNSLQSDDSATYYCARSFGMDYWGQGTSVTVSS VL: NIMMTQSPSSLAVSAGEKVTMSCKSSQSILNSSNQKNYLAWYQQKPGQSPKLLIYWASTRESGVPDRFTGSGSGTDFTLTISSVQAEDLAVYYCHQYFSSRTFGGGTKLEIK | 2830 relative flourescence units |
| 13G7G1/C3 (antibody, V domains shown, as m8; also called TPP-3423) VH: RVQLQQSGAELARPGASVKMSCKASGYTFTNYAMHWVKQRPGQGLEWIGYINPKSDNTNYNQKFKDKATLTTDKSSATAYMQLSSLTSDDSAVYYCQTGTRDYWGQGTTLTVSS VL: HIVLTQSPAIMSASPGEKVTIFCSASSSITYVYWFQQKPGTSPKLWIYSTSSLPSGVPARFSGSGSGTSYSLTISRMEAEDAATYYCHQRNSYPFTFGSGTKLEIK | 2880 relative flourescence units |

// lookup FACS signal for 1H5B4/H12 (antibody, V domains shown, as m8) VH: QVQLQQSGAELARPGASVKMSCKASGYTFTSYSIHWIKQRPGQSLEWIGYINPNSDYANYNQKFKDKATLTTDKSSTTAYMQLSSLTTDDSAVYYCQTGTRDYWGQGTTLTVSS VL: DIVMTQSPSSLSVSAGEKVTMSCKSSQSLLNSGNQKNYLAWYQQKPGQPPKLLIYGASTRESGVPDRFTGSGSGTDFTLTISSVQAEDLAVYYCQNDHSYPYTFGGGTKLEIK
1.05 relative flourescence units

Input 10F1B10/F3 (antibody, V domains shown, as m8) VH: QVQLLQSGAELARPGASVRISCKASGYTFTRYAMHWVKQRPGQGLEWIGYINPGTFSTNYNQKFKDRATLTADKSSSTAYMQLNSLTSEDSAVYYCQTGTRDYWGQGTTLTVSS VL: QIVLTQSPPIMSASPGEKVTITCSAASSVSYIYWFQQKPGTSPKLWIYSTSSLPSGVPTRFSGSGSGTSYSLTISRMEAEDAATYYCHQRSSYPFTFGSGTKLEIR
2860 relative flourescence units

Input 8F9E9/F11 (antibody, V domains shown, as m8) VH: QVQLQQSGAELARPGASVKMSCKASGYTFTSYSIHWIKQRPGQSLEWIGYINPNSDYANYNQKFKDKATLTTDKSSTTAYMQLSSLTTDDSAVYYCQTGTRDYWGQGTTLTVSS VL: HIVLTQSPAIMSASPGEKVTIICSARSSVSYMYWFQQKPGTSPKLWIYATSSLPSGVPARFSGSGSGTSYSLTISRMEAEDAATYYCHQRSSYPYTFGSGTKLEIK
2860 relative flourescence units
